molecular target: T1, human c-Met ECD-Fc-Flis (human); test: HGF-blocking ELISA: HGF signal on coated c-Met ECD-Fc-Flis; Ab 125000.00 ng/mL
T1 construct: c-Met ECD fused to Fc with flag- and His-tag at the C-terminus; also called human c-Met extracellular domain (ECD)-Fc-Flis fusion; human c-Met-Flis-Fc ECD
T1 sequence (chain, as listed by the source): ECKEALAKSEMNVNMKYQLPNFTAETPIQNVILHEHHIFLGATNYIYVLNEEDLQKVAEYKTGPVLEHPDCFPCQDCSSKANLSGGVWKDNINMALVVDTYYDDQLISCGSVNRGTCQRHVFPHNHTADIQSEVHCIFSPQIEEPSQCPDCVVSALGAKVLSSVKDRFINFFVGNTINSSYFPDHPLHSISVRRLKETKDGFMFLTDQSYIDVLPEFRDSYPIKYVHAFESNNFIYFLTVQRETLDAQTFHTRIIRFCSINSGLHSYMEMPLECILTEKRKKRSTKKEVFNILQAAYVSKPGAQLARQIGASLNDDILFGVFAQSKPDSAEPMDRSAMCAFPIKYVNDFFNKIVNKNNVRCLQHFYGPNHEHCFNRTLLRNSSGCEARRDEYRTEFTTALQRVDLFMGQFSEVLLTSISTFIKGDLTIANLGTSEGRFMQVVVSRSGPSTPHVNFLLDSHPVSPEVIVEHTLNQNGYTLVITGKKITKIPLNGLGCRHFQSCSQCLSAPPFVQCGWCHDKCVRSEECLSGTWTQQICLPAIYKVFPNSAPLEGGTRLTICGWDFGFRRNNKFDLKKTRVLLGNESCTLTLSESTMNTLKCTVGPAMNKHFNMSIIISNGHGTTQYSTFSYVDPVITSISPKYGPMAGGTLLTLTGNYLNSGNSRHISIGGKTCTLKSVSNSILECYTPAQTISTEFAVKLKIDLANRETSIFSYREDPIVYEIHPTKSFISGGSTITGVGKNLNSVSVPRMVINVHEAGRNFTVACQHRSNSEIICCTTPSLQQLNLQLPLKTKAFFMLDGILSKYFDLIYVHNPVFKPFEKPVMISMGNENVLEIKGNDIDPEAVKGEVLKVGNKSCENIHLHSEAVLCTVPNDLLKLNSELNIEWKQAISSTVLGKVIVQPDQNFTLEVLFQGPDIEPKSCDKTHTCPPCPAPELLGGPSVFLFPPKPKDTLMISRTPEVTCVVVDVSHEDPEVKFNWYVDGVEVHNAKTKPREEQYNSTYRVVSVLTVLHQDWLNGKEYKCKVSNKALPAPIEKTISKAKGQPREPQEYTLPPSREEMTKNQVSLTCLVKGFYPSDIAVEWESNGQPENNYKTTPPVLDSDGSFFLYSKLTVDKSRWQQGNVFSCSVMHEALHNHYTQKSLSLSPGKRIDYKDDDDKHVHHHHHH
Consider the following binders and their measured AVG A450 nm readings.
Please state the figure in A450 nm; there is no need to write the unit.

Past entries and their recorded results:
C8-6 (antibody, human IgG2, kappa, V domains shown, Named IgG4 kappa; also called C8-6 IgG4) VH: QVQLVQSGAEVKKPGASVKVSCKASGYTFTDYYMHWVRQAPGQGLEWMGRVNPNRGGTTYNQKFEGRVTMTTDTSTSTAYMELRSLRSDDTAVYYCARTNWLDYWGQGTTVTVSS VL: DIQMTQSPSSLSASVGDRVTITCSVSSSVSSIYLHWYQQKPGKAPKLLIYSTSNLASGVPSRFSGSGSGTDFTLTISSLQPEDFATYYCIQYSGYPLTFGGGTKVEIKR	1.32
C8-co-16 (antibody, human IgG2, kappa, V domains shown, Named IgG4 kappa; also called C8-co-16 IgG4) VH: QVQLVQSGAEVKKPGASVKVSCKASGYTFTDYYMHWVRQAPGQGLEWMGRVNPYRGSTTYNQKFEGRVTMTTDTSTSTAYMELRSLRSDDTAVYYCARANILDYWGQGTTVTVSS VL: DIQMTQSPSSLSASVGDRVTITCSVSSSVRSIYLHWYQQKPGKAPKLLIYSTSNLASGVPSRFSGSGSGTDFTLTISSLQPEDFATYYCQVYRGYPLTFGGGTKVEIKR	0.38

Okay, now this binder:
Prompt line: Returns the measured AVG A450 nm for the input binder. Input: D11-8B8 (antibody, human IgG2, kappa, V domains shown, Human engineered IgG2 kappa c-Met antibody; also called Mab D11-8B8; D11-8B8 IgG2) VH: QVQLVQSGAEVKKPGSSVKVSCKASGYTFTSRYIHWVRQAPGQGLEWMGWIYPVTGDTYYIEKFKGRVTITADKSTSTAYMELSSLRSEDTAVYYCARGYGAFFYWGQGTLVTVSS VL: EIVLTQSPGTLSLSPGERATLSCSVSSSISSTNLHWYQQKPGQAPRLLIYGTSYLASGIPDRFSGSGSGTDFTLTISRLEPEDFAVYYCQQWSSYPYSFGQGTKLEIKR
Response line: 1.38
